- Experimental Protocol: pKa determination from fluorescence emission spectra of SNAFL analogs
- Particulars: phosphate buffer, pH 6
Measure Name: pKa
Please state the value as a number alone, without comment.

Which pKa is reported for this compound? O=C(O)CCc1cc2c(-c3ccccc3C(=O)O)c3ccc4cc(O)c(Cl)cc4c3oc-2cc1=O
6.6
